MEASUREMENT_KIND: melting point

# count of solved cases: 5
MOLECULE	melting point
Cc1nc(CO)n(Cc2ccccc2)c1C	156 to 158 °C
COC(=O)Cc1cccc(OC)c1OCCCc1cc(O)nn1Cc1ccc(Cl)cc1Cl	110 to 111 °C
O=C1CC(c2cccc(-n3ccnc3)c2)=Nc2ccc(C3CC3)cc2N1	198 to 200 °C
NS(=O)(=O)c1ccc(N2CCN(CCC3C=Cc4ccccc43)CC2)cc1 (stereo not given)	181 °C
CCOC(=O)Cc1sc(Sc2cccc(C(=O)O)n2)nc1C	123 to 125 °C

[ask] Write down melting point measured for item CC1(C)OC(=O)Nc2ccc(-c3cccc(F)c3F)cc21
[reply] 166 to 167 °C

[ask] Specify measured melting point for O=C1CCc2c(-c3ccncc3)sc(-c3ccc(F)cc3)c21 .
[reply] 193 to 195 °C

[ask] Retrieve melting point measured for CCOC(=O)C1=C(C)NC(COC(C)=O)=C(C(=O)OCC)C1c1ccccc1OC (stereo not given) and print it.
[reply] 84 to 86 °C

[ask] Provide only the value of recorded melting point for O=C(O)C(S)=Cc1ccc(C(F)(F)F)o1
[reply] 158 °C

[ask] Supply reported melting point belonging to this molecule: O=S(=O)(Nc1ccc2oncc2c1)c1cc(Cl)ccc1Cl
[reply] 173 to 174 °C

[ask] Please report melting point for the following molecule: CCOC(=O)N1CCN(C(=O)Cn2c(-c3ccc(Cl)cc3)nc3cccnc32)CC1
[reply] 184 to 186 °C

[ask] Find the measured melting point of CCC(Oc1c(Br)cc(-c2ccc(-c3c(Cc4ccccc4)oc4ccccc34)cc2)cc1Br)C(=O)O (stereo not given) and report it.
[reply] 79 to 80 °C

[ask] Give recorded melting point. FC(F)(F)c1cccc(C(=CC2=NCCN2)c2ccc3ccccc3n2)c1
[reply] 76.5 °C
